Read-out: Forkhead box O1 (FOXO1), FOXO1 (gene 2308)
Test: LTEA_HepaRG_FOXO1: Life Technologies and Expression Analysis (LTEA) Assay for Forkhead box O1 (FOXO1) using HepaRG (AID 2283456)
Details: mRNA level, 48 h; actives raise or lower the signal
Procedure: LTEA_HepaRG is a cell based, multiplexed-readout assay that uses HepaRG, a human liver cell line, with measurements taken at 48 hours after chemical dosing on a 96-well plate.LTEA_HepaRG_FOXO1 is one of 102 assay component(s) measured in the LTEA HepaRG cell culture assay. It is a marker of Cell proliferation, survival, death.Data from the assay component LTEA_HepaRG_FOXO1 was analyzed into 1 endpoint. […]
The source made the active and inactive calls. How the source made its calls: active means hit-call score of the fitted dose curve at least 0.9, where 1 is the maximum; inactive means score below 0.9.
Entry note: the call must match one of 1.0 = active, 0.0 = inactive

INSERT INTO results (molecule, assigned_class) VALUES
  ('c1ccc2c(c1)ccc1ccccc12', 0.0);

Query molecule follows.
[in] Which outcome was assigned to CCCCCCCCCCCCCCCS(=O)(=O)Oc1ccccc1 in this test?
[out] 0.0

* * *

Test: ATG_Oct_MLP_CIS: Attagene CIS-FACTORIAL HepG2 Assay for human Octamer-Binding Transcription Factor (Oct) (AID 2282993)
Details: HepG2 Attagene cis-factorial Oct reporter, mRNA; actives raise or lower the signal
Description: ATG_CIS is a cell-based, multiplexed-readout assay that uses HepG2, a human liver cell line, with measurements taken at 24 hours after chemical dosing in a 24-well plate.ATG_Oct_MLP_CIS is one of 52 assay component(s) measured or calculated from the ATG_CIS assay. […] This assay endpoint, ATG_Oct_MLP_CIS, was analyzed with bidirectional fitting relative to DMSO as the negative control and baseline of activity. […]
The source made the active and inactive calls. Rule for the calls: active = hit-call score of the fitted dose curve at least 0.9, where 1 is the maximum; inactive = score below 0.9.
Entry note: the call must match one of T = active, F = inactive

Example entries and their recorded answers appear below.
INSERT INTO measurements (molecule, assigned_class) VALUES
  ('CC[C@H](C)[C@@H](C(=O)O)n1sc2ccccc2c1=O', 'F'),
  ('NC(=O)N(O)[C@@H]1C=C[C@H](Oc2cccc(Oc3ccc(F)cc3)c2)C1', 'T'),
  ('CCCCCCCCCCCCCCCS(=O)(=O)Oc1ccccc1', 'F');

[in] Which outcome was assigned to OC1CCC(C2CCCCC2)CC1 (configuration not stated) in this test?
[out] F

[in] Which outcome was assigned to C#C[C@]1(O)CC[C@H]2[C@@H]3CCC4=CC(=O)CC[C@@H]4[C@H]3CC[C@@]21C in this test?
[out] F

[in] Which outcome was assigned to CN(C)C=O in this test?
[out] F

[in] Which outcome was assigned to CC(O)CO (configuration not stated) in this test?
[out] F

* * *

Assay: BSK_3C_SRB: Viability Assessment in the BioMAP Diversity Plus: 3C Assay (AID 2283023);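 further: cells read 24 h after compound dosing; fitted both ways against DMSO so a hit may be signal rise or drop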
Details: primary human endothelial cells (HUVEC)
Protocol: BSK_3C is a cell-based, multiplexed-readout assay that uses umbilical vein endothelium, a human vascular primary cell, with measurements taken at 24 hours after chemical dosing in a 96-well plate.BSK_3C_SRB is an assay component measured in the BSK_3C assay. It measures 0.1% sulforhodamine related to cell death using Sulforhodamine staining technology.Data from the assay component BSK_3C_SRB was analyzed into 1 assay endpoint. […]
Active and inactive are the calls of the source. How the source made its calls: active means hit-call score of the fitted dose curve at least 0.9, where 1 is the maximum; inactive means score below 0.9.
Entry note: the call must match one of YES for active, NO for inactive

Example entries and their recorded answers appear below.
INSERT INTO assay_data (compound_smiles, assigned_class) VALUES
  ('CC(C)CCCCCCOC(=O)CCCCC(=O)OCCCCCCC(C)C', 'NO'),
  ('CC[C@H](c1ccc(O)cc1)[C@@H](CC)c1ccc(O)cc1', 'YES'),
  ('CC[C@H](C)[C@@H](C(=O)O)n1sc2ccccc2c1=O', 'NO'),
  ('CCCOC(=O)c1ccc(O)cc1', 'NO');

[in] Which outcome was assigned to CC(=O)CC(C)(C)O in this test?
[out] NO

[in] Which outcome was assigned to C=C(C)C(=O)OCCC(F)(F)C(F)(F)C(F)(F)C(F)(F)C(F)(F)C(F)(F)F in this test?
[out] NO

[in] Which outcome was assigned to CC(C)(C)c1cccc(C(C)(C)C)c1O in this test?
[out] NO

* * *

Read-out: urokinase plasminogen activator (uPA), PLAU (gene 5328)
Experiment: BSK_KF3CT_uPA: BioMAP Diversity Plus: KF3CT Assay for urokinase plasminogen activator (uPA) Biomarker Activity (AID 2283075)
Settings: primary human keratinocytes with fibroblasts; actives raise or lower the signal
The source made the active and inactive calls. The calls were made as follows: active = hit-call score of the fitted dose curve at least 0.9, where 1 is the maximum; inactive = score below 0.9.
Entry note: the call must match one of yes for active, no for inactive

[in] Which outcome was assigned to CCCCOCCO in this test?
[out] no

[in] Which outcome was assigned to COc1ccc([N+](=O)[O-])cc1N in this test?
[out] no

[in] Which outcome was assigned to N#C[C@@H]1CC(F)(F)CN1C(=O)CNC1CC2CCC(C1)N2c1ncccn1 (stereo partly specified) in this test?
[out] no

[in] Which outcome was assigned to c1ccc2c(c1)ccc1ccccc12 in this test?
[out] no

* * *

Read-out: Plasminogen activator inhibitor-1 (PAI1), SERPINE1 (gene 5054)
Assay: BSK_BE3C_PAI1: BioMAP Diversity Plus: BE3C Assay for Plasminogen activator inhibitor-1 (PAI1) Biomarker Activity (AID 2283037)
Conditions: primary human bronchial epithelial cells; actives raise or lower the signal
The source made the active and inactive calls. Rule for the calls: active = hit-call score of the fitted dose curve at least 0.9, where 1 is the maximum; inactive = score below 0.9.
Entry note: the call must match one of class 1 (active), class 0 (inactive)

INSERT INTO results (molecule, assigned_class) VALUES
  ('CCCOc1sc(C(=O)N2CCC(c3cc(CN)ccc3F)CC2)c(C)c1Br', 'class 1');

[in] Which outcome was assigned to O=C(O)c1ccccc1C(c1ccc(O)cc1)c1ccc(O)cc1 in this test?
[out] class 1

[in] Which outcome was assigned to O=C(O)Cc1cc(I)c(Oc2cc(I)c(O)c(I)c2)c(I)c1 in this test?
[out] class 1

[in] Which outcome was assigned to CCCCC(CC)COC(=O)CCCCC(=O)OCc1ccccc1 (configuration not stated) in this test?
[out] class 0

[in] Which outcome was assigned to Oc1cccc(O)c1 in this test?
[out] class 0

* * *

Test: CCTE_Shafer_MEA_acute_burst_duration_mean: CCTE's Neural Acute Assay for Mean Burst Duration, Shafer Lab (AID 2284014);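 further: hits are decreases in mean burst duration relative to DMSO controls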
Activity calls are given as the source filed them. The calls were made as follows: active = hit-call score of the fitted dose curve at least 0.9, where 1 is the maximum; inactive = score below 0.9.
Entry note: the call must match one of active, inactive

INSERT INTO results (compound_smiles, assigned_class) VALUES
  ('CC#C[C@]1(O)CC[C@H]2[C@@H]3CCC4=CC(=O)CCC4=C3[C@@H](c3ccc(N(C)C)cc3)C[C@@]21C', 'inactive'),
  ('CCCCCCCCCCCCN1CCCC1=O', 'inactive'),
  ('CN1CCC[C@H]1c1cccnc1', 'inactive'),
  ('CC(C)(C)c1cc(C(C)(C)C)c(O)c(C(C)(C)C)c1', 'inactive'),
  ('CC(=O)NC1(c2cccc(F)c2)CCN(CC[C@@]2(c3ccc(Cl)c(Cl)c3)CN(c3ccccc3)C(=O)CO2)CC1', 'active');

[in] Which outcome was assigned to CCCCCCCCCCCCCCCS(=O)(=O)Oc1ccccc1 in this test?
[out] inactive

[in] Which outcome was assigned to CCCCCCCCCCCCc1ccccc1S(=O)(=O)O in this test?
[out] inactive

[in] Which outcome was assigned to O=C(O)c1ccccc1C(c1ccc(O)cc1)c1ccc(O)cc1 in this test?
[out] inactive

[in] Which outcome was assigned to Cc1cc(CCN2CCN(c3nsc4ccccc34)CC2)cc2c1NC(=O)CC2(C)C in this test?
[out] active

[in] Which outcome was assigned to CN1CCN(c2ccccc2/C=C2\SCCN(c3ccc(Cl)c(Cl)c3)C2=O)CC1 in this test?
[out] active

[in] Which outcome was assigned to CN(C)C=O in this test?
[out] inactive

[in] Which outcome was assigned to NC(=O)N(O)[C@@H]1C=C[C@H](Oc2cccc(Oc3ccc(F)cc3)c2)C1 in this test?
[out] active

* * *

Biological target: human Colony Stimulating Factor 1 Receptor (CSF1R), CSF1R (gene 1436) (UniProt P07333)
Sequence (P07333 whole entry, looked up): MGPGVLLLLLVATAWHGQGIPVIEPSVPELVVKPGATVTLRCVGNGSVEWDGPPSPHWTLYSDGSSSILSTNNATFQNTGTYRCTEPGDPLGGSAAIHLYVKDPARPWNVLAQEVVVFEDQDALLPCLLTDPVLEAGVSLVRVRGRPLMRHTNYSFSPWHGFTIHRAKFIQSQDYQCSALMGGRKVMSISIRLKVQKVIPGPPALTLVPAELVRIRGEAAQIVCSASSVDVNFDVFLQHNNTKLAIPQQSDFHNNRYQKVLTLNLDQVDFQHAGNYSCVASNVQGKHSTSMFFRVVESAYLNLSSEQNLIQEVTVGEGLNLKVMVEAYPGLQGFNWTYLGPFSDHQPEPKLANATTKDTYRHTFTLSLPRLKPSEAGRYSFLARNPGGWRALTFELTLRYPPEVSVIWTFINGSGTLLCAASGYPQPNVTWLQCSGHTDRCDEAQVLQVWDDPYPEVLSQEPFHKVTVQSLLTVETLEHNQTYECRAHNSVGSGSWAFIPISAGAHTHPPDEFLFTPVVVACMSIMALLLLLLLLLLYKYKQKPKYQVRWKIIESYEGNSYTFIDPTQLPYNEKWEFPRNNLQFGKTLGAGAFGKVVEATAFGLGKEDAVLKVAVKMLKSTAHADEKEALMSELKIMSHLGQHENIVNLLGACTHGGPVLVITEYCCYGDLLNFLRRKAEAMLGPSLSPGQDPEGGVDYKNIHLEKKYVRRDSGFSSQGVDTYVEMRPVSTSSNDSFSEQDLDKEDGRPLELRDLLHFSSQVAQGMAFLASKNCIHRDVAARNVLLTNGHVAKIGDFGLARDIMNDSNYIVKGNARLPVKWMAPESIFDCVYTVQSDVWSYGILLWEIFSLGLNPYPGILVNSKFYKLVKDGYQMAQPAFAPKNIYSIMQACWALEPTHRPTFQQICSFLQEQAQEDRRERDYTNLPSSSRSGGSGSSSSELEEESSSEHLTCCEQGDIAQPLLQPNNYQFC
Assay: NVS_ENZ_hCSF1R: NovaScreen (NVS) Enzymatic Assay for human Colony Stimulating Factor 1 Receptor (CSF1R) (AID 2283150)
Records with an inconclusive call do not appear. Activity calls are given as the source filed them. The calls were made as follows: active = hit-call score of the fitted dose curve at least 0.9, where 1 is the maximum; inconclusive = response in the unintended direction; inactive = score below 0.9.
Entry note: the call must match one of active, inactive

INSERT INTO assay_data (molecule, assigned_class) VALUES
  ('COCC(C)OCC(C)O (stereo not given)', 'inactive'),
  ('CCCCCCCCCCCCc1ccccc1S(=O)(=O)O', 'active'),
  ('O=C(O)Cc1cc(I)c(Oc2cc(I)c(O)c(I)c2)c(I)c1', 'inactive'),
  ('Cc1cc(CCN2CCN(c3nsc4ccccc34)CC2)cc2c1NC(=O)CC2(C)C', 'inactive');

[in] Which outcome was assigned to CCCOC(=O)c1ccc(O)cc1 in this test?
[out] inactive
